Subject of test: UniProt:P32245
Sequence (P32245 whole entry): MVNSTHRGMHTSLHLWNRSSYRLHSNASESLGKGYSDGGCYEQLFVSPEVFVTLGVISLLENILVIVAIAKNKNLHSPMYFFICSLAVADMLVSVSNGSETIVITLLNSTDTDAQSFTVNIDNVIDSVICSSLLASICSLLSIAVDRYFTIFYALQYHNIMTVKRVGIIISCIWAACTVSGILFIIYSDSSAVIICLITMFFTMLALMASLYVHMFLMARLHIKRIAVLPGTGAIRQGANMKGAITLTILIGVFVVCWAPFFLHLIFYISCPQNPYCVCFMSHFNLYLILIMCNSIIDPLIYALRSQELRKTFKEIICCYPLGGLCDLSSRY
pKi: −log10 of the molar value.
Outcome label depends on pKi relative to 8: at/above gives MET, below gives NOT MET.

Answered cases to consult:
CCCC[C@H](NC(=O)[C@@H](NC(=O)[C@@H](N)Cc1ccc(O)cc1)C(C)C)C(=O)N[C@@H]1CSSC[C@@H](C(=O)N[C@@H](CCCNC(=N)N)C(=O)N[C@@H](Cc2ccccc2)C(=O)NCC(N)=O)NC(=O)[C@H](Cc2c[nH]c3ccccc23)NC(=O)[C@H](CCCNC(=N)N)NC(=O)[C@H](Cc2ccccc2)NC(=O)[C@H](Cc2cnc[nH]2)NC1=O ... NOT MET
CCCC[C@H](NC(=O)[C@@H](NC(=O)[C@@H](N)Cc1ccc(O)cc1)C(C)C)C(=O)N[C@H]1CSSC[C@@H](C(=O)N[C@@H](CCCNC(=N)N)C(=O)N[C@@H](Cc2ccccc2)C(=O)NCC(N)=O)NC(=O)[C@H](Cc2c[nH]c3ccccc23)NC(=O)[C@H](CCCNC(=N)N)NC(=O)[C@H](Cc2ccccc2)NC(=O)[C@H](Cc2cnc[nH]2)NC1=O ... MET

Req: Exam item: decide whether the reported pKi for CC(C)[C@H](NC(=O)[C@@H](N)Cc1ccc(O)cc1)C(=O)N[C@H]1CSSC[C@@H](C(=O)N[C@@H](CCCN=C(N)N)C(=O)N[C@@H](Cc2ccccc2)C(=O)NCC(N)=O)NC(=O)[C@H](Cc2c[nH]c3ccccc23)NC(=O)[C@H](CCCN=C(N)N)NC(=O)[C@H](Cc2ccccc2)NC(=O)[C@H](Cc2c[nH]cn2)NC(=O)CNC1=O is at least 8.
Resp: NOT MET
